experiment_summary: Quantitative High-Throughput drug screen in 47 multiple myeloma cell lines against the NCATS MIPE library collection: U266_ATCC cell viability assay (AID 1919864); note: nearly all actives have a fitted effect of over 35% in size
condition_details: U266 myeloma viability, CellTiter-Glo ATP luminescence, 48 h; series mostly up to 45.8 µM
Results filed as inconclusive are left out. Active and inactive are the calls of the source. Calls come from the whole dose curve; as a rule, active = well fitted cell-killing curve with a large enough effect; inconclusive = small, poorly fitted or top-dose-only effect, or effect the other way; inactive = no such curve, though single readings can be large or run the other way.
Tick one outcome: 1 = active, -1 = inactive

Solved entries:
smiles_input	class
CCCCCCCCc1ccc(CCC(N)(CO)CO)cc1	1
O=C(C=Cc1ccc(CN(CCO)CCc2c[nH]c3ccccc23)cc1)NO	1
COc1ccc(CCC(=O)c2c(O)cc(O[C@@H]3O[C@H](CO)[C@@H](O)[C@H](O)[C@@H]3O[C@@H]3O[C@@H](C)[C@H](O)[C@@H](O)[C@@H]3O)cc2O)cc1O	1

# input Per the assay record, what outcome was assigned to CS(=O)(=O)N1CCc2c(-c3cnc(N)nc3)nc(N3CCOCC3)nc21 ?
# output 1

# input Per the assay record, what outcome was assigned to CCCCCCCCCCCCc1ccc(S(=O)(=O)Nc2nncs2)cc1 ?
# output -1

# input Per the assay record, what outcome was assigned to NC(=O)c1ncn([C@@H]2O[C@H](CO)[C@@H](O)[C@@H]2O)c1N ?
# output -1

# input Per the assay record, what outcome was assigned to CCc1ccc(C(=O)Nc2cc(CN3CCN(C)CC3)cc(C(F)(F)F)c2)cc1C#Cc1cnc2ccnn2c1 ?
# output 1

# input Per the assay record, what outcome was assigned to CCOC(=O)N1CCN([N+]([O-])=NOc2ccc([N+](=O)[O-])cc2C#N)CC1 ?
# output 1

# input Per the assay record, what outcome was assigned to CCN(CC)Cc1ccc2cc(COC(=O)Nc3ccc(C(=O)NO)cc3)ccc2c1 ?
# output 1

====

experiment_summary: High-throughput drug toxicity screening in the BPDCN cell line Gen2.2 (AID 1224824);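 note: cells exposed to compounds for 48 h before reading; 100% = DMSO and 0% = bortezomib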
condition_details: Gen2.2 BPDCN cells; at 45.8 µM (top of the series) unless noted
Excerpt: Blastic plasmacytoid dendritic cell neoplasm (BPDCN) is a rare, aggressive and largely incurable hematologic malignancy originating from plasmacytoid dendritic cells (pDCs). Although an initial response to chemotherapy is common, BPDCN prognosis is extremely poor and most patients relapse with drug-resistant disease leading to a median overall survival of ~1 year after diagnosis. […]
reported_property: cell viability, % of control (lower = more cytotoxic) (%)
The reply should be a number in %, with the unit left off.

Worked cases, cell viability, % of control (lower = more cytotoxic) given:
compound	measured
CC[C@]12C=CCN3CC[C@@]4(c5cc([C@@]6(C(=O)OC)C[C@H]7C[C@@H](C(C)(F)F)CN(Cc8c6[nH]c6ccccc86)C7)c(OC)cc5N(C)[C@H]4[C@@](O)(C(=O)OC)[C@H]1OC(C)=O)[C@@H]32	8.97
CCOC(=O)[C@@H](N)Cc1ccc(-c2cc(O[C@H](c3ccc(Cl)cc3-n3ccc(C)n3)C(F)(F)F)nc(N)n2)cc1	10.1
COc1ccc2c(c1OC)C(=O)OC2[C@H]1c2c(cc3c(c2OC)OCO3)CCN1C (some centres not stated)	24.5
OC[C@@H](O)[C@@H](O)[C@H](O)[C@@H](O)CO	201
FC(F)(F)c1ccc(Nc2nc3ccc(Oc4ccnc(-c5ncc(C(F)(F)F)[nH]5)c4)cc3[nH]2)cc1	14.5
OCCNC1CCCc2c1[nH]c1ccc(-c3ccccc3)cc21 (configuration not stated)	1.69
CCCCC(=O)O[C@]1(C(=O)CO)[C@@H](C)C[C@H]2[C@@H]3CCC4=CC(=O)C=C[C@]4(C)[C@@]3(F)[C@@H](O)C[C@@]21C	44
Cc1nc(NC(=O)N2CCC[C@@H]2C(N)=O)sc1-c1ccnc(C(C)(C)C(F)(F)F)c1	21
COc1cc(CCc2cc(NC(=O)c3ccc(N4C[C@@H](C)N[C@@H](C)C4)cc3)n[nH]2)cc(OC)c1	14
COc1cc(C)c(C=CC(C)=CC=CC(C)=CC(=O)O)c(C)c1C	336

Record summary for CCc1cnn2c(NCc3ccc[n+]([O-])c3)cc(N3CCCC[C@@H]3CCO)nc12 : reported cell viability, % of control (lower = more cytotoxic) = 4.38

Record summary for c1ccc(CNc2nc(NCc3ccccc3)c3ccccc3n2)cc1 : reported cell viability, % of control (lower = more cytotoxic) = 6.1

====

experiment_summary: qHTS of pediatric cancer cell lines to identify multiple opportunities for drug repurposing: Confirmatory screen for SK-N-SH cells (AID 1347129);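 note: cells exposed to compound for 48 h before viability read; nearly all actives have a fitted effect of over 60% in size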
condition_details: SK-N-SH neuroblastoma cell viability; series mostly up to 46.1 µM
Records with an inconclusive call do not appear. Active and inactive are the calls of the source. Calls come from the whole dose curve; as a rule, active = well fitted cell-killing curve with a large enough effect; inconclusive = small, poorly fitted or top-dose-only effect; inactive = flat fitted curve, though single readings scatter.
Tick one outcome: TRUE (active), FALSE (inactive)

smiles_input	class
C=CC(=O)Nc1ccc2ncnc(Nc3ccc(OCc4cccc(F)c4)c(Cl)c3)c2c1	TRUE
Cc1cnc(Nc2ccc(CN3CCOCC3)cc2)nc1Nc1cccc(S(=O)(=O)NC(C)(C)C)c1	TRUE
C[N+](C)([O-])CCNc1ccc(NCC[N+](C)(C)[O-])c2c1C(=O)c1c(O)ccc(O)c1C2=O	FALSE

Turning now to a further record.
# input Per the assay record, what outcome was assigned to CC(=O)[C@]1(O)Cc2c(O)c3c(c(O)c2[C@@H](O[C@H]2C[C@H](N)[C@@H](O)[C@H](C)O2)C1)C(=O)c1ccccc1C3=O ?
# output TRUE

====

experiment_summary: Quantitative High-Throughput drug screen in 47 multiple myeloma cell lines against the NCATS MIPE library collection: KHM11_PLB cell viability assay (AID 1918962); note: nearly all actives have a fitted effect of over 35% in size
condition_details: KHM11 myeloma cell viability, CellTiter-Glo ATP luminescence, 48 h; series mostly up to 45.8 µM
Excerpt: PI: Beverly A. Mock Ph.D. Laboratory of Cancer Biology and Genetics, Center for Cancer Research, National Cancer Institute, National Institute of Health, Bethesda, Maryland […] 5; Detector; 425V; Luminescence; Viewlux PerkinElmer. […] 1. […] Briefly, the corresponding myeloma cell lines were screened in 1,536-well plates with 500 cells, 5-uL per well for inhibition of cell viability (assessed by measuring ATP levels with CellTiterGlo). […]
Results filed as inconclusive are left out. The source made the active and inactive calls. The call rests on the fitted dose curve; in most records, active means well fitted cell-killing curve with a large enough effect; inconclusive means small, poorly fitted or top-dose-only effect, or effect the other way; inactive means no such curve, though single readings can be large or run the other way.
Tick one outcome: t for active, f for inactive

Solved entries:
molecule	class
CC(=O)[C@]1(O)Cc2c(O)c3c(c(O)c2[C@@H](O[C@H]2C[C@H](N)[C@@H](O)[C@H](C)O2)C1)C(=O)c1ccccc1C3=O	t
Oc1cc(-c2nc(-c3ccccc3)[nH]c2-c2ccncc2)ccc1Cl	t
CC(C)C[C@H](NC(=O)CNC(=O)c1cc(Cl)ccc1Cl)B1OC(=O)CC(CC(=O)O)(C(=O)O)O1 (stereo partly drawn)	t

# input Per the assay record, what outcome was assigned to CC(=O)N1CCN(c2ccc(OCc3nn(C)c(C)c3-c3cccc4c(CCCOc5cccc6ccccc56)c(C(=O)O)n(Cc5cccnc5)c34)cc2)CC1 ?
# output t

# input Per the assay record, what outcome was assigned to COc1ccc(Nc2cc(-c3cnc(N)nc3)nc(N3CCOCC3)n2)cn1 ?
# output t

# input Per the assay record, what outcome was assigned to CC(C)(N)c1ccc(-c2nc3ccccc3nc2-c2ccccc2)cc1 ?
# output t

# input Per the assay record, what outcome was assigned to C[C@@H](Cc1cc2c(c(C(N)=O)c1)N(CCCO)CC2)NCCOc1ccccc1OCC(F)(F)F ?
# output f

# input Per the assay record, what outcome was assigned to C[C@H](NC(=O)Cc1cc(F)cc(F)c1)C(=O)N[C@H](C(=O)OC(C)(C)C)c1ccccc1 ?
# output f

====

experiment_summary: Quantitative High-Throughput drug screen in 47 multiple myeloma cell lines against the NCATS MIPE library collection: RPMI8226_ATCC cell viability assay (AID 1919871); note: nearly all actives have a fitted effect of over 30% in size; note: potency is the fitted concentration of half-maximal effect
condition_details: RPMI8226 myeloma viability, CellTiter-Glo ATP luminescence, 48 h; series mostly up to 45.8 µM
Results filed as inconclusive are left out. Active and inactive are the calls of the source. Calls come from the whole dose curve; as a rule, active = well fitted cell-killing curve with a large enough effect; inconclusive = small, poorly fitted or top-dose-only effect, or effect the other way; inactive = no such curve, though single readings can be large or run the other way.
reported_property: Potency

compound	Potency
Cc1onc(-c2ccccc2)c1C(=O)N[C@@H]1C(=O)N2[C@@H](C(=O)O)C(C)(C)S[C@@H]12	inactive
Oc1cc2c(cc1O)C1c3ccc(O)c(O)c3OCC1(O)C2 (stereo not given)	inactive
COc1cc(C)c(Sc2cnc(NC(=O)c3ccc(CNC(C)C(C)(C)C)cc3)s2)cc1C(=O)N1CCN(C(C)=O)CC1 (stereo not given)	16.6 µM (active)
Nc1nc2c(c(=O)[nH]1)N(C=O)[C@H](CNc1ccc(C(=O)N[C@@H](CCC(=O)O)C(=O)O)cc1)CN2	inactive

# next compound below
Record summary for COc1cc(C)c(C=CC(C)=CC=CC(C)=CC(=O)O)c(C)c1C : reported Potency = 1.48 µM (active)

====

experiment_summary: qHTS of pediatric cancer cell lines to identify multiple opportunities for drug repurposing: Primary screen for MG 63 (6-TG R) cells (AID 1347105); note: nearly all actives have a fitted effect of over 50% in size
condition_details: MG 63 (6-TG R) viability, CellTiter-Glo, 48 h; series mostly up to 46 µM
Inconclusive results are not listed. Calls of active or inactive are those of the source. Calls follow the shape of the dose curve; as a rule, active = well fitted cell-killing curve with a large enough effect; inconclusive = small, poorly fitted or top-dose-only effect; inactive = no such curve, though single readings can be large or run the other way.
Tick one outcome: yes (1) (active), no (0) (inactive)

Solved entries:
compound	class
C[C@@]12C[C@@]3(O)O[C@@H](O1)[C@]1(COC(=O)c4ccccc4)[C@@H]3C[C@@]12O[C@@H]1O[C@H](CO)[C@@H](O)[C@H](O)[C@@H]1O	no (0)
CC(=O)[C@]1(O)Cc2c(O)c3c(c(O)c2[C@@H](O[C@H]2C[C@H](N)[C@@H](O)[C@H](C)O2)C1)C(=O)c1ccccc1C3=O	yes (1)
N#CC(=C(N)Sc1ccc(N)cc1)c1ccccc1C(F)(F)F	no (0)
CCCc1nc(C(C)(C)O)c(C(=O)O)n1Cc1ccc(-c2ccccc2-c2nn[nH]n2)cc1	no (0)
C[C@H](CCC(=O)O)[C@H]1CCC2C3C[C@H](O)[C@@H]4C[C@H](O)CC[C@]4(C)C3CC[C@@]21C (stereo partly specified)	no (0)

# input Per the assay record, what outcome was assigned to CC(C)(O)[C@H]1CC[C@@](C)([C@H]2[C@@H](O)C[C@@]3(C)[C@@H]4C[C@H](O[C@@H]5O[C@H](CO)[C@@H](O)[C@H](O)[C@@H]5O)[C@H]5C(C)(C)[C@@H](O[C@@H]6OC[C@@H](O)[C@H](O)[C@@H]6O)CC[C@@]56C[C@@]46CC[C@]23C)O1 ?
# output no (0)
